Listed here: items and their measured Frequency of response (%).
# Test system: SARS-CoV-2-specific CD4+ T cells (OX40+CD137+) in PBMC
# Type: cell-based, human
# setup_conditions: CD4+ T cell epitopes identified by AIM assay; percent of tested donors responding

Consider the following illustrative entries.
APHGVVFLHVTYVPA :: 7%
AQYTSALLAGTITSG :: 9%
CPFGEVFNATRFASV :: 9%

Inquiry: Dear colleague, I am looking for the recorded Frequency of response (%) of the following sequence: YIRVGARKSAPLIEL [SEQ ID NO 256]
Reply text: 18%

Inquiry: Record: NLLLQYGSFCTQLNR
Reply text: 31%

Inquiry: Record: CEFQFCNDPFLGVYY
Reply text: 27%

Inquiry: Record: IVRFPNITNLCPFGE
Reply text: 9%

Inquiry: Record: LMIERFVSLAIDAYP [SEQ ID NO 259]
Reply text: 36%

Inquiry: Record: CAQKFNGLTVLPPLL
Reply text: 9%

Inquiry: Record: FTVEKGIYQTSNFRV
Reply text: 9%

Inquiry: Record: TQLNRALTGIAVEQD
Reply text: 8%

Inquiry: Record: ELDKYFKNHTSPDVD
Reply text: 7%

Inquiry: Record: CTFEYVSQPFLMDLE
Reply text: 64%

Inquiry: Record: SLLIVNNATNVVIKV
Reply text: 9%

Inquiry: Record: AYSNNSIAIPTNFTI
Reply text: 8%

Inquiry: Record: KNPLLYDANYFLCWH [SEQ ID NO 253]
Reply text: 7%

Inquiry: Record: KPSKRSFIEDLLFNK
Reply text: 17%

* * *

# Tested on: SARS-CoV-2-specific CD4+ T cells (OX40+CD137+) in PBMC
# Assay type: cell-based, human
attribute_measured: Frequency of response (%)
State just the number; it will be interpreted in %.

Consider the following illustrative entries.
SELVIGAVILRGHLR :: 33
SGFAAYSRYRIGNYK :: 31
CLVGLMWLSYFIASF :: 33
AGNGGDAALALLLLD :: 21
FTINCQEPKLGSLVV :: 27
PSGTWLTYTGAIKLD [SEQ ID NO 248] :: 42
SSANNCTFEYVSQPF :: 27
FYSKWYIRVGARKSA [SEQ ID NO 255] :: 55
PCPIHFYSKWYIRVG :: 55

Next, consider the following sequence.
Inquiry: Dear colleague, I am looking for the recorded Frequency of response (%) of the following sequence: RCSFYEDFLEYHDVR
Reply text: 36

* * *

# Tested on: human T cells
# procedure_text: T cell cytokine SFC response to cross-reactive CD4 epitopes (Tables 6-8)
# Assay type: cell-based
# setup_conditions: cross-reactive CD4 non-spike SARS-CoV-2 epitopes; all cytokines
Listed here: items and their measured Total SFC.
State just the number; it will be interpreted in SFC.

849 (LYSPIFLIVAAIVFI) [compound 849] :: 520
848 (VKHVYQLRARSVSPK) [compound 848] :: 3640
246 (DAALALLLLDRLNQL) [compound 246] :: 3813
807 (LAILTALRLCAYCCN) [compound 807] :: 1800
846 (YIINLIIKNLSKSLT) [compound 846] :: 1393

Inquiry: Dear colleague, I am looking for the recorded Total SFC of the following substance: 806 (SEETGTLIVNSVLLF) [compound 806]
Reply text: 267
